target: UniProt Q9BXF3; experiment: Alphascreen assay. Binding to CECR2A (domain start/stop: P420-H538) by alphascreen assay
Sequence (Q9BXF3 whole entry): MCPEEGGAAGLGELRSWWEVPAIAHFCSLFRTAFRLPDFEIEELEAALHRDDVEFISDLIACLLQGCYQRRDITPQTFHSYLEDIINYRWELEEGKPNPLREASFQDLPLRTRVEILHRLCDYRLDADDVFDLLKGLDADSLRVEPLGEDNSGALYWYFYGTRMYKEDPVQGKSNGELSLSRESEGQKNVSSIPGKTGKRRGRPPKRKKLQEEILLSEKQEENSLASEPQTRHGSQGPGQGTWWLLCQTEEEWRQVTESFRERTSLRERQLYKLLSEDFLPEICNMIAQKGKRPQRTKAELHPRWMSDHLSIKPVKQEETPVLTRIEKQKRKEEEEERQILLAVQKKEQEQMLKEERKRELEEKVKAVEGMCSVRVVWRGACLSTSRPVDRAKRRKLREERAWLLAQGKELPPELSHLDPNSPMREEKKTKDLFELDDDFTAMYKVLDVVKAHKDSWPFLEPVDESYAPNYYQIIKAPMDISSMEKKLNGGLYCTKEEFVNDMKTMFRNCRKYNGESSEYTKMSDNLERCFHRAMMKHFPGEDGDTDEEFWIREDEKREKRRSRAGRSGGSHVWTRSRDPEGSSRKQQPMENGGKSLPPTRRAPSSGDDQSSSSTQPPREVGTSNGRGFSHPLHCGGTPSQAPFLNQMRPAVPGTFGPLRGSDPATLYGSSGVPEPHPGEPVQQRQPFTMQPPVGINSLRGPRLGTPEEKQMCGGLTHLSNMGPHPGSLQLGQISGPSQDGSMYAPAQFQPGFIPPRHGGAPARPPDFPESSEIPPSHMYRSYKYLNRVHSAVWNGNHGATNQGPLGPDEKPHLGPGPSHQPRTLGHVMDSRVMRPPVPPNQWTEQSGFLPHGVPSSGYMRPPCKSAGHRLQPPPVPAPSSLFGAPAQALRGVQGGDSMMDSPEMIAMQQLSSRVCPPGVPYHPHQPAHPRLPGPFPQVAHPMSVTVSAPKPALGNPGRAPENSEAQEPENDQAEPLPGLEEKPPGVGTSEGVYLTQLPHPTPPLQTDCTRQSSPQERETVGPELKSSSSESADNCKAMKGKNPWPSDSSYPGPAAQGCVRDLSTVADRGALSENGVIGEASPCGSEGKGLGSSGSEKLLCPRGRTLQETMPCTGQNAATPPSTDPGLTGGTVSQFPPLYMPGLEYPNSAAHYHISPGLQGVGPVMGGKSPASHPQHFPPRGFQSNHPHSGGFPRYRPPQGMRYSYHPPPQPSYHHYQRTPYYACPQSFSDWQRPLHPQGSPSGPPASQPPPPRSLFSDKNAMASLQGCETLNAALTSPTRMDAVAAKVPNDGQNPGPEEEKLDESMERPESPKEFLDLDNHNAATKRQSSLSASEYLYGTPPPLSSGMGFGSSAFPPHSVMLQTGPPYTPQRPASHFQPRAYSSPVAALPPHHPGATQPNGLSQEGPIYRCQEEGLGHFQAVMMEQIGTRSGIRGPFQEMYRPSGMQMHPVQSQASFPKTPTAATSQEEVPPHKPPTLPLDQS
pIC50: −log10 of the molar value.
attribute.measured: pIC50

- CCCS(=O)(=O)c1nc(NC2CC2)cc(-c2ccc3c(ccn3C3CC(C)(C)NC(C)(C)C3)c2)n1: 7.71
